Taken from patent US20240116985A1.

Parameter: IC50. Scope: all listed entries.
Target: full-length beta-Catenin (Uniprot ID P35222) (Homo sapiens)
Construct: 10 nM full-length beta-Catenin (Uniprot ID P35222)
Sequence (P35222 1-781): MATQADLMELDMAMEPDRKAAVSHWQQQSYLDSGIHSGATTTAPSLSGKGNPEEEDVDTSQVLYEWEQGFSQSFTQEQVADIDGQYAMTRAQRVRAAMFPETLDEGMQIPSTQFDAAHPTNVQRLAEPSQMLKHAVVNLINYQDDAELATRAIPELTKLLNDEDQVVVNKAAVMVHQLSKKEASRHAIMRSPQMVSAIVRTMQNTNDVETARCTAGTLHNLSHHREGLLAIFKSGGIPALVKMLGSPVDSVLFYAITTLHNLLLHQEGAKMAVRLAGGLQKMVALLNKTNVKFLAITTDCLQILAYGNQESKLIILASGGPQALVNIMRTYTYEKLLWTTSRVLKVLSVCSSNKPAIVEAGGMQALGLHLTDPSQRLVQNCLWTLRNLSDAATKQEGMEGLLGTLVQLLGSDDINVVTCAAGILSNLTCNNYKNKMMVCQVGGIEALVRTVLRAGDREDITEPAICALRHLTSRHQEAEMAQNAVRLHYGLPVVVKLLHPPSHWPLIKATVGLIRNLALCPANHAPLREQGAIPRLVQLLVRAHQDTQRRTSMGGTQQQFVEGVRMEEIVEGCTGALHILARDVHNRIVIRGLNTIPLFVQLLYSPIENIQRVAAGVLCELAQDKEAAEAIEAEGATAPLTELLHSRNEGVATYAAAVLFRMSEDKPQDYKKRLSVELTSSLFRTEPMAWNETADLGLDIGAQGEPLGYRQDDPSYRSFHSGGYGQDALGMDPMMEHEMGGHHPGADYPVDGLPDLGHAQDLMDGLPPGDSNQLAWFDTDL
Test: Fluorescence polarization IC50 (beta-catenin / 5FAM-TCF4 10-53 competition)
Type: binding
Settings: fluorescence polarization; read-out: beta-Catenin FP IC50

>  <compound>
CC(=O)N1CCC[C@]12CC=CCCCC1(CCCC=CCCCCCC[C@@](C)(C(=O)N[C@@H](Cc3ccsc3)C(=O)N[C@@H](Cc3csc4ccccc34)C(=O)N[C@@H](CCC(N)=O)C(N)=O)NC(=O)[C@H](CC(N)=O)NC(=O)[C@H](Cc3ccccc3)NC(=O)[C@H](C)NC(=O)[C@H](C)NC(=O)[C@H](CN(CCC(F)(F)F)CC(=O)O)NC(=O)[C@H](CC(=O)O)NC1=O)NC(=O)[C@H](CC(C)(C)C)NC(=O)[C@H](CC(=O)O)NC2=O (stereo partly drawn)

>  <value-unit>
nM

>  <IC50>
52.5

$$$$
>  <compound>
CC(=O)N1CCC[C@]12CC=CCCCC1(CCCC=CCCCOC(=O)N3CC[C@@](C(=O)N[C@@H](Cc4ccsc4)C(=O)N[C@@H](Cc4csc5ccccc45)C(=O)N[C@@H](Cc4ccccc4)C(N)=O)(C3)NC(=O)[C@H](CC(C)C)NC(=O)[C@H](Cc3ccccc3)NC(=O)[C@H](C)NC(=O)[C@H](Cc3c[nH]cn3)NC(=O)[C@H](Cc3cccc(C(=O)O)c3)NC(=O)[C@H](CC(=O)O)NC1=O)NC(=O)[C@H](CC(C)(C)C)NC(=O)[C@H](CC(=O)O)NC2=O (stereo partly drawn)

>  <value-unit>
nM

>  <IC50>
17

$$$$
>  <compound>
CC(=O)N1CCC[C@]12CC=CCCCC1(CCCC=CCCCOC(=O)N3CC[C@@](C(=O)N[C@@H](Cc4ccsc4)C(=O)N[C@@H](Cc4csc5ccccc45)C(=O)N[C@H](C(N)=O)C(C)C)(C3)NC(=O)[C@H](CC(N)=O)NC(=O)[C@H](Cc3ccccc3)NC(=O)[C@H](C)NC(=O)[C@H](C)NC(=O)[C@H]([C@@H](C)O)NC(=O)[C@H](CC(N)=O)NC1=O)NC(=O)[C@H](CC(C)(C)C)NC(=O)[C@H](CC(=O)O)NC2=O (stereo partly drawn) [I-1879]

>  <value-unit>
nM

>  <IC50>
567

$$$$
